src = paper PMC8151276

Target: OPRK1 (Homo sapiens)
Construct: purchased Promega (in-house HiBiT-GPCR construct library, NanoBRET)
Sequence (P41145 whole entry): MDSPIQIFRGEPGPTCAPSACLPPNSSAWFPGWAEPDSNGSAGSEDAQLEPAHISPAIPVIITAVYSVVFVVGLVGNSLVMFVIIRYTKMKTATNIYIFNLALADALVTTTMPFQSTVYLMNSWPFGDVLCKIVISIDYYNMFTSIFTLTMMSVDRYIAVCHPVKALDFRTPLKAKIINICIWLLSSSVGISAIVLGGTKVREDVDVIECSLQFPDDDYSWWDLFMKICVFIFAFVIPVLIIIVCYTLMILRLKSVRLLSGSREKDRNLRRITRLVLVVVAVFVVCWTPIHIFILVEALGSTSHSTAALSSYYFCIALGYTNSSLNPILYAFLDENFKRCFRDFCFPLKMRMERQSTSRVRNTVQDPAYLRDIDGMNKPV
Test: NanoBRET screen HiBiT-OPRK1 in HEK293
Assay type: binding
Settings: OPRK1; tracer 1μM
Please provide measured NanoBRET Fold Response for the entries that follow.
Returns: the value as a bare number; no unit string appended.

Identify measured NanoBRET Fold Response corresponding to `O=C(CCOCCOCCOCCOCCNC(=O)CCc1ccc2n1[B-](F)(F)[N+]1=C(c3ccc[nH]3)C=CC1=C2)NCCCN1CCN(C2=Nc3ccccc3Oc3ccc(Cl)cc32)CC1` 0.95

Provide measured NanoBRET Fold Response value, entry: `COc1ccccc1N1CCN(CCCCN2C(=O)c3ccc(CNC(=O)CCOCCNC(=O)c4ccc(CNC(=O)CCc5ccc6n5[B-](F)(F)[N+]5=C(c7ccc[nH]7)C=CC5=C6)cc4)cc3C2=O)CC1` 1.16

Check the records and state NanoBRET Fold Response for `CC(C)N(CC[C@H](c1ccccc1)c1cc(CCNC(=O)c2ccc(CNC(=O)CCc3ccc4n3[B-](F)(F)[N+]3=C(c5ccc[nH]5)C=CC3=C4)cc2)ccc1O)C(C)C` 0.96

Identify the reported NanoBRET Fold Response for the following entry. `CC(C)N(CC[C@H](c1ccccc1)c1cc(CCNC(=O)CCOCCOCCOCCOCCNC(=O)CCc2ccc3n2[B-](F)(F)[N+]2=C(c4ccc[nH]4)C=CC2=C3)ccc1O)C(C)C` 0.95

Quote NanoBRET Fold Response reported for `O=C(CCc1ccc2n1[B-](F)(F)[N+]1=C(c3ccc[nH]3)C=CC1=C2)NCCOCCOCCNC(=O)OCCOCCN1CCN(C2=Nc3ccccc3Sc3ccccc32)CC1` please. 0.97
